Data provenance is patent US7514452B2.

Quick reference: IC50 of the listed items.
Biological target: glucagon receptor (Rattus norvegicus, UniProt P30082)
Sequence (P30082 27-485): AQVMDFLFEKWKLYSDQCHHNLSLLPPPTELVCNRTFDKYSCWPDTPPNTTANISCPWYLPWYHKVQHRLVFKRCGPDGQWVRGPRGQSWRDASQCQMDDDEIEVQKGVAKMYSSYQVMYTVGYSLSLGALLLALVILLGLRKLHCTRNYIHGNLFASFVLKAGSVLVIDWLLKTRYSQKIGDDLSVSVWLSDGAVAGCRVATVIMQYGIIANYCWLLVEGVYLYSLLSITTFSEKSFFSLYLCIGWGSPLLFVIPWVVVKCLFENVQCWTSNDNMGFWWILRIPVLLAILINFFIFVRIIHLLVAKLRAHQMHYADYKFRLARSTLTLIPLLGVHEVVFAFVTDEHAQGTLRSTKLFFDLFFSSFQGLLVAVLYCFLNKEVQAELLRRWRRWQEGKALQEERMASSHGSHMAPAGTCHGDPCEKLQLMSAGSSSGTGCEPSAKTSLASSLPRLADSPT
Test: Experiment for glucagon binding inhibition, rat hepatic membrane (125I-glucagon)
Conditions: male SD rat hepatic membrane, 125I-glucagon 50 pM, 25° C. for 30 minutes; read-out: Glucagon binding inhibitory activity IC50 (nM) Rat

structure: Cc1cccc(COc2ccc(-c3ccoc3C(=O)NNC(=O)c3ccc(O)c([N+](=O)[O-])c3)cc2)c1
IC50: 49 nM

structure: N#Cc1cc(C(=O)NNC(=O)c2occc2-c2cccc(OCc3ccccc3)c2)ccc1O
IC50: 30 nM

structure: Cc1ccccc1Cc1cccc(-c2ccoc2C(=O)NNC(=O)c2ccc(O)c([N+](=O)[O-])c2)c1
IC50: 28 nM

structure: Cc1cc(C)c(C)c(COc2cccc(-c3c(-c4ccccc4)coc3C(=O)NNC(=O)c3ccc(O)c(C#N)c3)c2)c1C
IC50: 1.5 nM

structure: C=C(C)COc1cccc(-c2ccoc2C(=O)NNC(=O)c2ccc(O)c([N+](=O)[O-])c2)c1
IC50: 37 nM

structure: CCCCOc1cccc(-c2ccoc2C(=O)NNC(=O)c2ccc(O)c(C#N)c2)c1
IC50: 140 nM

structure: N#Cc1cc(C(=O)NNC(=O)c2occ(COCc3ccccc3)c2-c2ccccc2)ccc1O
IC50: 150 nM

====

Quick reference: melting point of the listed items.

structure: COc1ccc(C(=O)NNC(=O)c2occ(-c3ccccc3)c2-c2ccccc2)cc1[N+](=O)[O-]
melting point: 150 to 158 °C

structure: O=C(NNC(=O)c1occ(-c2ccccc2)c1-c1ccccc1)c1cc(Cl)c(O)c(Cl)c1
melting point: 261 to 263 °C

structure: CCCCc1ccc(-c2ccoc2C(=O)NNC(=O)c2ccc(O)c([N+](=O)[O-])c2)cc1
melting point: 190 to 193 °C

structure: CC(C)COc1cccc(-c2ccoc2C(=O)NNC(=O)c2ccc(O)c([N+](=O)[O-])c2)c1
melting point: 98 to 100 °C

structure: CC(C)=CCOc1cccc(-c2ccoc2C(=O)NNC(=O)c2ccc(O)c([N+](=O)[O-])c2)c1
melting point: 84 to 85 °C

structure: Cc1cccc(COc2ccc(-c3ccoc3C(=O)NNC(=O)c3ccc(O)c([N+](=O)[O-])c3)cc2)c1
melting point: 162 to 164 °C

structure: O=C(NNC(=O)c1occc1-c1ccncc1)c1ccc(O)c([N+](=O)[O-])c1
melting point: 237 °C

structure: CC(C)c1cccc(-c2ccoc2C(=O)NNC(=O)c2ccc(O)c([N+](=O)[O-])c2)c1
melting point: 182 to 183 °C

====

Target: glucagon receptor (Rattus norvegicus)
Assay: Experiment for glucagon binding inhibition, rat hepatic membrane (125I-glucagon)
Conditions: male SD rat hepatic membrane, 125I-glucagon 50 pM, 25° C. for 30 minutes; read-out: Glucagon binding inhibitory activity IC50 (nM) Rat
outcome.measure: log10 IC50 (log10 of the value in nM)

compound: N#Cc1cc(C(=O)NNC(=O)c2occc2-c2cccs2)ccc1O [Example 60]
log10 IC50: 2.08

compound: Cc1cccc(C)c1COc1cccc(-c2ccoc2C(=O)NNC(=O)c2ccc(O)c([N+](=O)[O-])c2)c1 [Example 224]
log10 IC50: 1.43

compound: O=C(NNC(=O)c1occc1-c1cccc(OCCc2ccccc2)c1)c1ccc(O)c([N+](=O)[O-])c1 [Example 209]
log10 IC50: 1.30

compound: CCCCCOc1ccc(-c2ccoc2C(=O)NNC(=O)c2ccc(O)c(F)c2)cc1 [Example 243]
log10 IC50: 2.58

compound: Cc1ccc(-c2ccoc2C(=O)NNC(=O)c2ccc(O)c([N+](=O)[O-])c2)cc1 [Example 146]
log10 IC50: 1.43

compound: CC(c1ccccc1)c1cccc(-c2ccoc2C(=O)NNC(=O)c2ccc(O)c([N+](=O)[O-])c2)c1 (stereo not shown) [Example 230]
log10 IC50: 1.52

compound: CCCCCCOc1cccc(-c2ccoc2C(=O)NNC(=O)c2ccc(O)c([N+](=O)[O-])c2)c1 [Example 184]
log10 IC50: 1.26

compound: N#Cc1cc(C(=O)NNC(=O)c2occc2-c2cccc(Oc3ccccc3)c2)ccc1O [Example 2]
log10 IC50: 2.52

compound: N#Cc1cc(C(=O)NNC(=O)c2occ(C=CCCc3ccccc3)c2-c2ccccc2)ccc1O [Example 59]
log10 IC50: 1.54

compound: O=C(NNC(=O)c1occc1-c1cccc(OCc2ccc3ccccc3c2)c1)c1ccc(O)c([N+](=O)[O-])c1 [Example 204]
log10 IC50: 0.56

compound: CCCOc1ccccc1-c1ccoc1C(=O)NNC(=O)c1ccc(O)c(C#N)c1 [Example 11]
log10 IC50: 2.15

compound: O=C(NNC(=O)c1occc1-c1ccc2ccccc2c1)c1ccc(O)c([N+](=O)[O-])c1 [Example 217]
log10 IC50: 1.78

compound: COc1ccc(COc2cccc(-c3ccoc3C(=O)NNC(=O)c3ccc(O)c([N+](=O)[O-])c3)c2)cn1 [Example 164]
log10 IC50: 0.59

compound: CCCCCCCOc1cccc(-c2ccoc2C(=O)NNC(=O)c2ccc(O)c([N+](=O)[O-])c2)c1 [Example 185]
log10 IC50: 1.30

compound: N#Cc1cc(C(=O)NNC(=O)c2occ(-c3ccccc3)c2-c2ccccc2)ccc1O [Example 18]
log10 IC50: 1.61

compound: CC(C)c1ccc(-c2ccoc2C(=O)NNC(=O)c2ccc(O)c([N+](=O)[O-])c2)cc1 [Example 153]
log10 IC50: 1.38

compound: O=C(NNC(=O)c1occc1-c1ccccc1)c1ccc(O)c(C(F)(F)F)c1 [Example 193]
log10 IC50: 2.52

compound: CCc1ccc(-c2ccoc2C(=O)NNC(=O)c2ccc(O)c([N+](=O)[O-])c2)cc1 [Example 156]
log10 IC50: 1.64

compound: O=C(NNC(=O)c1occ(-c2ccccc2)c1-c1ccccc1)c1ccc(O)c([N+](=O)[O-])c1 [Example 19]
log10 IC50: 1.93

compound: Cc1cccc(-c2ccoc2C(=O)NNC(=O)c2ccc(O)c([N+](=O)[O-])c2)c1 [Example 145]
log10 IC50: 2.00

compound: Cc1cc(C)c(C)c(COc2cccc(-c3ccoc3C(=O)NNC(=O)c3ccc(O)c([N+](=O)[O-])c3)c2)c1C [Example 20]
log10 IC50: 0.96

compound: N#Cc1cc(C(=O)NNC(=O)c2occc2-c2ccc(OCc3ccccc3)cc2)ccc1O [Example 17]
log10 IC50: 2.00

compound: N#Cc1cc(C(=O)NNC(=O)c2occ(-c3cccc(OCc4ccccc4)c3)c2-c2cccc(OCc3ccccc3)c2)ccc1O [Example 115]
log10 IC50: 1.73

compound: N#Cc1cc(C(=O)NNC(=O)c2occc2-c2ccccc2)ccc1O [Example 61]
log10 IC50: 1.76

compound: N#Cc1cc(C(=O)NNC(=O)c2occc2-c2cccc(OCC(O)c3ccccc3)c2)ccc1O (stereo not shown) [Example 108]
log10 IC50: 2.04

compound: CCCCCOc1cccc(-c2ccoc2C(=O)NNC(=O)c2ccc(O)c([N+](=O)[O-])c2)c1 [Example 182]
log10 IC50: 1.69

compound: N#Cc1cc(C(=O)NNC(=O)c2occc2-c2ccccc2Cc2ccccc2)ccc1O [Example 8]
log10 IC50: 2.23

compound: CCCCCOc1ccc(-c2ccoc2C(=O)NNC(=O)c2ccc(O)c([N+](=O)[O-])c2)cc1 [Example 159]
log10 IC50: 1.49

compound: CC(=O)Nc1ccccc1COc1cccc(-c2ccoc2C(=O)NNC(=O)c2ccc(O)c([N+](=O)[O-])c2)c1 [Example 179]
log10 IC50: 1.80

compound: O=C(NNC(=O)c1occc1-c1ccc(OCc2ccccc2)cc1)c1ccc(O)c([N+](=O)[O-])c1 [Example 245]
log10 IC50: 1.46

compound: Cc1cc(C)c(C)c(COc2cccc(-c3coc(C(=O)NNC(=O)c4ccc(O)c(C#N)c4)c3-c3ccccc3)c2)c1C [Example 99]
log10 IC50: 0.53
